melting point reference

// solved cases for melting point follow
Molecule	Quantity name	Observed result
CCc1ccc(-c2cc3ncnc(Nc4ccc5[nH]ccc5c4)c3s2)cc1	melting point	171 to 182 °C
CCc1csc2ccc3[nH]c4c(c3c12)CN(C)CC4	melting point	181 to 182 °C
CC(C)N(Cc1ccc(Cl)c(Cl)c1)S(=O)(=O)c1ccc(Cl)s1	melting point	66 to 67 °C
O=CNc1nc(-c2ccccc2)c2cc(Cl)ccc2n1	melting point	252 °C
CC(C)(O)CN(c1ccc(F)cc1)[C@H]1c2cc(C#N)ccc2OC(C)(C)[C@@H]1O	melting point	70 °C

What measured melting point goes with `O=c1c2c(c3cccnc3n1-c1ccccc1)N(c1ccccc1)CC2` ? 220 to 222 °C

###

Quantity name: melting point

Molecule	Observed result
Nc1cc(Oc2ccccc2)ccc1[N+](=O)[O-]	72 °C

Return reported melting point; argument: `C=C(CBr)S(=O)(=O)C(C)(C)C` 40.5 to 42 °C

Now try CC(=O)OCC(=O)C1=CCC2C3CCC4=CC(=O)CCC4(C)C34OC4CC12C (stereo not given) . 129 to 130 °C

Next molecule up: `Cc1noc(C)c1-c1ccnc2[nH]c(-c3cn(C)c4ccc(C(=O)O)cc34)cc12` > 305 °C

Next entry: O=C(c1ccc(Cl)cc1)N1CCc2cc(S(=O)(=O)N3CC(c4ccccc4)NC3=O)ccc21 (stereo not given) 235 °C

Same read-out for O=C(Cc1c(-c2ccccc2)c2cc3c(cc2oc1=O)C(O)CC3)Nc1ccc(F)cc1C(F)(F)F (stereo not given) ? 217 to 218 °C

And the next one, `COc1ccc(Cc2c(F)cccc2F)c(N(CC(N)=O)S(=O)(=O)c2ccc(OC)c(OC)c2)c1` ? 188 °C

Here is the next molecule: `NC(=O)Cc1ccc2c(c1)C(=O)Cc1ccccc1O2` 152 to 154 °C

Similarly, `COc1c(-c2ccccc2C)c(=O)[nH]c2ccccc12` ? 208 to 210 °C

Param item: `Nc1cc(Nc2cccc(Cl)c2)ncn1` 171 to 172 °C

###

Catalogue of melting point readings, one per entry.

Compound	melting point
COc1cc2c(cc1Nc1ncc(Cl)c(Nc3ccccc3S(C)(=O)=O)n1)CCN(CC(=O)N(C)C)CC2	77 to 99 °C
O=C(OC(=O)c1cc2cc(O)ccc2s1)c1ccccc1	235 to 236 °C

Give the measured melting point of `Cc1cc(C(=O)O)ccc1N1CCOCC1` . 220 to 221 °C

Would you mind doing COC=C(c1cccnc1)C(C)c1ccc(Cl)cc1Cl (configuration not stated) as well? 67 to 68 °C

Also check `OCc1ccc(O)c(CO)c1CNCCCCCCOCCCCCc1ccco1` 59 to 60 °C

// repeat for CN1CC(CCN2C(=O)c3ccccc3C2=O)Oc2ncccc2C1=O (configuration not stated) and report 146 to 147 °C

Next: `COC(=O)C(=CN(C)C)n1ccc2ccc(-c3nccc(-c4ccccc4)n3)cc21` 168 °C

Now consider c1ccc(Cn2c3c(c4ccccc42)CCC(Cc2nnn[nH]2)S3)cc1 (configuration not stated) and answer again. 160 to 165 °C

###

Quantity name: melting point

What melting point value was documented for this compound, CC(C)(C)OC(=O)CC1=CCCCC1n1nc(-c2c(-c3ccccc3)nn3ccccc23)ccc1=O (centres undefined) ? 146 to 147 °C

Ok, now `COn1c(C)nn(-c2cc(F)c(C#N)cc2Cl)c1=O` 102 °C

Please do the same for `O=C(O)Cc1ccc(OCCCN2CCC(c3cn(CC4CC4)c4ccccc34)CC2)cc1` as well. 83 to 85 °C

Repeat for the following compound: `O=C(NCCN1CCOCC1)Nc1nc2ccc(OCc3c(Cl)cccc3Cl)cc2[nH]1` 256 to 259 °C

Please give the result for `Cn1nc(-c2cccc(F)c2)n(C)c1=S` too. 126 to 128 °C

Proceed to `O=C(CCCN1CCCCC1)c1ccc2sc3ccc(C(=O)CCCN4CCCCC4)cc3c2c1` 93 to 95 °C

Try `CC(C)(O)C#Cc1ccc2c(c1)NC(=O)CC(c1cccc(C#N)c1)=N2` next. 243 °C

One more compound: `CC(C)(C)OC(=O)N[C@@H](CC(=O)OCc1ccccc1)C(=O)N[C@@H](Cc1ccccc1)C(=O)OCc1ccccc1` 93 to 94 °C

Repeat for the following compound: `Cn1c(-c2ccccc2)c(C2CCC(C(=O)O)(C(=O)O)CC2)c2ccccc21` 230 °C

The measurements presented in this section are drawn from a melting point compilation (Tetko et al.; mined from patent text by program, amines drawn as free bases though some values may be those of a salt).
